- Test system: MDA-MB-231
- experimental details: NCI tumour cell line growth inhibition, 48 h
The source made the active and inactive calls. No stated cut-off is given here; in the data, active = GI50 up to about 1.1 µM and inactive = higher.
Let's look at some compounds and their measured GI50.
measured attribute: GI50

>  <compound>
CN(C)c1ccc(/C=C/C=C(/C#N)c2ccccc2)cc1

>  <reported result>
37.8 µM (inactive)

$$$$
>  <compound>
Nc1nc2[nH]cc(CCc3ccc(C(=O)N[C@@H](CCC(=O)O)C(=O)O)cc3)c2c(=O)[nH]1

>  <reported result>
10.3 µM (inactive)

$$$$
>  <compound>
Cc1cc(O)nc(NN2C(Cl)C(=O)C2c2ccc(O)cc2)n1 (stereo not given)

>  <reported result>
14 µM (inactive)

$$$$
>  <compound>
CC1=CC2=C(C#N)C(=O)OC2(C)C(c2ccccc2)C1 (stereo not given)

>  <reported result>
> 100 µM (inactive)

$$$$
>  <compound>
CCCCCCCCCCCCc1ccsc1-c1ccc(-c2ccc(-c3sc(-c4cc(CCCCCCCCCCCC)c(-c5ccc(-c6ccc(-c7sccc7CCCCCCCCCCCC)s6)s5)s4)cc3CCCCCCCCCCCC)s2)s1

>  <reported result>
> 100 µM (inactive)

$$$$

# credit: ChEMBL document CHEMBL1201862
